The reported measurements were obtained from patent US20200024322A1.

# TESTED_ON: T1, human glucagon receptor (human, UniProt P47871 26-477)
# T1 construct: whole, on cells; also called hGcgR; GcgR
# PROTOCOL_DESCRIPTION: [125I]-Gcg competition SPA, hGcgR membranes
For each entry below, report its pKi value.
pKi (log units): -log10 of the concentration in mol/L.

Data request: Item under review: YXEGTXTSDYSIXLDEKAQXEFIXXLIEGGPSSGAPPPS (Aib2; αMeF(2F)6; αMeL13; K17((2-[2-(2-Amino-ethoxy)-ethoxy]-acetyl)2-(γ-Glu)-CO-(CH2)18-CO2H); Aib20; D-Glu24; αMeY25; C-terminal NH2) [Example 222] . Reported pKi?
Data returned: 7.15

Data request: Moving on to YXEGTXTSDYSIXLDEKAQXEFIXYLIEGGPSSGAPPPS (Aib2; αMeF(2F)6; αMeL13; K17((2-[2-(2-Amino-ethoxy)-ethoxy]-acetyl)2-(γ-Glu)-CO-(CH2)16-CO2H); Aib20; D-Glu24; C-terminal NH2) [Example 221]
Data returned: 6.81

Data request: Now consider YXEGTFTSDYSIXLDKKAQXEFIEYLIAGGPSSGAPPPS (Aib2; αMeL13; K17((2-[2-(2-Amino-ethoxy)-ethoxy]-acetyl)-(γ-Glu)-CO-(CH2)18-CO2H); Aib20; C-terminal NH2) [Example 339] and answer again.
Data returned: 6.06

Data request: Next: YXEGTFTSDYSIXLDKKAQXAFIEYLIAGGPSSGAPPPS (Aib2; αMeL13; K17((2-[2-(2-Amino-ethoxy)-ethoxy]-acetyl)2-(γ-Glu)-CO-(CH2)18-CO2H); Aib20; C-terminal NH2) [Example 324]
Data returned: 6.35

Data request: What would you report for YXEGTXTSDLSIXLDXKAQXAFIXXLIEGGPSSGAPPPS (Aib2; αMeF(2F)6; αMeL13; Orn16; K17((2-[2-(2-Amino-ethoxy)-ethoxy]-acetyl)2-(γ-Glu)-CO-(CH2)16-CO2H); Aib20; D-Glu24; αMeY25; C-terminal NH2) [Example 244] ?
Data returned: 7.06

Data request: Do the same for YXEGTXTSDXSIXLDXKAQXTFIXXLIEGGPSSGAPPPS (Aib2; αMeF(2F)6; 4Pal10; αMeL13; Orn16; K17((2-[2-(2-Amino-ethoxy)-ethoxy]-acetyl)2-(γ-Glu)-CO-(CH2)16-CO2H); Aib20; D-Glu24; αMeY25; C-terminal NH2) [Example 239] please
Data returned: 6.22
